SYSTEM TESTED: 5-HT1A receptors (Rattus norvegicus, UniProt P19327)
Construct: from tissue; host or cells: cerebral cortex (crude synaptosomal membranes) of male Sprague-Dawley rats
TEST PROTOCOL: in vivo lowering of brain 5-HIAA levels (5-HT1A agonist activity)
Design: species or system rat (male Sprague-Dawley)
EXPERIMENTAL SETUP: sc, one hour after treatment
Listed compounds paired with reported 5-HIAA MED (minimum effective dose lowering brain 5-HIAA levels)
State the answer as a number, implicitly in mg/kg.

Some solved entries appear below for comparison.
CCCN(CCC)C1CCc2cccc(-c3oncc3OC)c2C1 (stereo not shown) [Example 31] ... 1.0
CCCN(CCC)C1CCc2cccc(-c3oncc3C)c2C1 (stereo not shown) [Example 21] ... 0.3
CCCN(CCC)C1CCc2cccc(-c3ccno3)c2C1 (stereo not shown) [Example 8] ... 0.1

Next:
[in] For CCCN(CCC)C1CCc2cccc(-c3nocc3C)c2C1 (stereo not shown) [Example 26] , write its 5-HIAA MED (minimum effective dose lowering brain 5-HIAA levels).
[out] 1.0

====

Here, each record is paired with measured Corticosterone MED (minimum effective dose elevating serum corticosterone levels) data.
SYSTEM TESTED: 5-HT1A receptors (Rattus norvegicus, UniProt P19327)
Construct: from tissue; host or cells: cerebral cortex (crude synaptosomal membranes) of male Sprague-Dawley rats
Sequence (P19327 1-422): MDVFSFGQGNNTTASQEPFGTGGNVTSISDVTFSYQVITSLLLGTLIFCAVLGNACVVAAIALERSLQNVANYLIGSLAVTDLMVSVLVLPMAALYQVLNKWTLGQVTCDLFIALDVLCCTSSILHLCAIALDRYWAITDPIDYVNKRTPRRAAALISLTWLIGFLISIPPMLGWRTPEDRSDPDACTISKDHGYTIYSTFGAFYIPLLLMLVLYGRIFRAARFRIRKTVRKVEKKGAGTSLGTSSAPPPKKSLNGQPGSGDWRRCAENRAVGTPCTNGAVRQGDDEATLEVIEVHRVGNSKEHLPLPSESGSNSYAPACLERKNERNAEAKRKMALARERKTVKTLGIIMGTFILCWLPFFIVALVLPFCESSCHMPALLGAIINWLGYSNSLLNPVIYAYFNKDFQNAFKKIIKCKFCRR
TEST PROTOCOL: in vivo elevation of serum corticosterone levels (5-HT1A agonist activity)
Set-up: species or system rat (male Sprague-Dawley)
EXPERIMENTAL SETUP: sc, one hour after treatment

Answered examples (5):
CCCN(CCC)C1CCc2cccc(-c3ccncc3)c2C1 (stereo not shown) ... > 1.0 mg/kg
CCCN(CCC)C1CCc2cccc(-c3ccn(C)n3)c2C1 (stereo not shown) ... 1.0 mg/kg
CCCN(CCC)C1CCc2cccc(-c3nccs3)c2C1 (stereo not shown) ... > 1.0 mg/kg
CCCN(CCC)C1CCc2cccc(-c3oncc3C)c2C1 (stereo not shown) ... 1.0 mg/kg
CCCN(CCC)C1CCc2cccc(-c3nocc3C)c2C1 (stereo not shown) ... > 1.0 mg/kg

[in] Retrieve Corticosterone MED (minimum effective dose elevating serum corticosterone levels) measured for CCCN(CCC)C1CCc2cccc(-c3oncc3OC)c2C1 (stereo not shown) and print it.
[out] > 1.0 mg/kg

[in] Return Corticosterone MED (minimum effective dose elevating serum corticosterone levels) for the following compound: CCCN(CCC)C1CCc2cccc(-c3cc[nH]n3)c2C1 (stereo not shown)
[out] > 1.0 mg/kg

[in] // Input: CCCN(CCC)C1CCc2cccc(-c3cc(C)on3)c2C1 (stereo not shown) . Output its Corticosterone MED (minimum effective dose elevating serum corticosterone levels) only.
[out] > 1.0 mg/kg

[in] Output measured Corticosterone MED (minimum effective dose elevating serum corticosterone levels) for this item: CCCN(CCC)C1CCc2cccc(-c3noc4ccccc34)c2C1 (stereo not shown)
[out] > 1.0 mg/kg

[in] Please supply the value of reported Corticosterone MED (minimum effective dose elevating serum corticosterone levels) for the item CCCN(CCC)C1CCc2cccc(-c3ccno3)c2C1 (stereo not shown)
[out] 0.3 mg/kg

[in] Please report Corticosterone MED (minimum effective dose elevating serum corticosterone levels) for the following compound: CCCN(CCC)C1CCc2cccc(-c3cc(SC)no3)c2C1 (stereo not shown)
[out] > 1.0 mg/kg

[in] Hello, please tell me recorded Corticosterone MED (minimum effective dose elevating serum corticosterone levels) for this one: CCCN(CCC)C1CCc2cccc(-c3cc(C)no3)c2C1 (stereo not shown)
[out] > 1.0 mg/kg

[in] Assign Corticosterone MED (minimum effective dose elevating serum corticosterone levels) to the following record: CCCN(CCC)C1CCc2cccc(-c3cc(Br)no3)c2C1 (stereo not shown)
[out] > 1.0 mg/kg

[in] Indicate the recorded Corticosterone MED (minimum effective dose elevating serum corticosterone levels) value for this compound: CCCN(CCC)C1CCc2cccc(-c3cccnc3)c2C1 (stereo not shown)
[out] > 1.0 mg/kg

[in] # return recorded Corticosterone MED (minimum effective dose elevating serum corticosterone levels) for entry CCCN(CCC)C1CCc2cccc(-c3ccon3)c2C1 (stereo not shown)
[out] 0.3 mg/kg

[in] Give the reported Corticosterone MED (minimum effective dose elevating serum corticosterone levels) for this compound. CCCN(CCC)C1CCc2cccc(-c3cscn3)c2C1 (stereo not shown)
[out] > 1.0 mg/kg
